Catalogue of compounds with associated pIC50
# Tested on: intracellular amastigotes of L. donovani strain MHOM-ET-67/L82
# Method: Activity against Leishmania donovani intracellular amastigotes in mouse peritoneal macrophages
# Test Settings: read-out: IC50 L. don. intracell; intracellular amastigotes in mouse peritoneal macrophages, strain MHOM-ET-67/L82, 96 h
pIC50: −log10 of the molar value.
Attribute Measured: pIC50

>>> print(df.to_string())
                                   compound  attribute_measured  endpoint_result
0              NNC(=O)c1ccncc1 [Izoniazide]               pIC50           < 3.66
1  CC(=O)OC[C@H]1O[C@@H]([S-])[C@H](OC(C)=O)[C@@H](OC(C)=O)[C@@H]1OC(C)=O.CCP(CC)CC.[Au+] [Auranofin]               pIC50           < 5.83

====

# Method: Cytotoxicity on macrophages infected with L. donovani
# Type: cell-based, mouse
# Test Settings: mouse, macrophages infected with L. donovani; read-out: IC50 Cytotox. mac.inf.
Catalogue of compounds with associated IC50 at 96 h

Compound	IC50 at 96 h
CN1CCN(CCCN2c3ccccc3Sc3ccc(C(F)(F)F)cc32)CC1	24.5 µM
Cc1oncc1C(=O)Nc1ccc(C(F)(F)F)cc1 [Leflunomide]	> 111 µM
Cc1ncc([N+](=O)[O-])n1CCO	> 175 µM
CC(=O)OCC(CCn1cnc2cnc(N)nc21)COC(C)=O	> 93.4 µM
Cc1cc(C2CCCCC2)n(O)c(=O)c1	20.3 µM
Cc1cccc(C)c1OCC(=O)N[C@@H](Cc1ccccc1)[C@@H](O)C[C@H](Cc1ccccc1)NC(=O)[C@H](C(C)C)N1CCCNC1=O	> 47.7 µM
CC(C)(C)NC(=O)[C@@H]1CN(Cc2cccnc2)CCN1C[C@@H](O)C[C@@H](Cc1ccccc1)C(=O)N[C@H]1c2ccccc2C[C@H]1O [Indinavir (Sulfate), Indinavir]	> 42.3 µM
NNC(=O)c1ccncc1 [Isoniazide]	> 219 µM

====

# Method: Cytotoxicity on macrophages infected with L. donovani
# Type: cell-based, mouse
# Test Settings: mouse, mouse peritoneal macrophages infected with L. donovani; read-out: IC50 Cytotox. mac.inf.
Attribute Measured: MCC at 96 h

In [3]: df
Out[3]:
                                   compound  endpoint_result
0  Clc1ccc(C(OCCN2CCCCC2)c2ccccc2)cc1 (stereo not shown)          90.9 µM

====

# System: T. cruzi, strain Tulahuen C4, intracellular amastigotes
# Method: microbe, parasite or virus in culture
# Test Settings: Trypanosoma cruzi, TULAHUEN, read-out: T. cruzi IC50
Structures can show the parent of a compound that is named as a salt.

Compound	Op	IC50 / µM
COC1=CC(=O)C[C@@H](C)[C@]12Oc1c(Cl)c(OC)cc(OC)c1C2=O	=	87.3
CO[C@H]1/C=C/O[C@@]2(C)Oc3c(C)c(O)c4c(O)c(c(/C=N/N5CCN(C)CC5)c(O)c4c3C2=O)NC(=O)/C(C)=C\C=C\[C@H](C)[C@H](O)[C@@H](C)[C@@H](O)[C@@H](C)[C@H](OC(C)=O)[C@@H]1C	>	109
Cc1cccc(N(C)C(=S)Oc2ccc3ccccc3c2)c1 [Tolnaftate]	=	20
CCN(CC)CCCC(C)Nc1ccnc2cc(Cl)ccc12 (centres unmarked) [Chloroquine (Diphosphate), Chloroquine]	=	99.2
CO[C@H]1/C=C/O[C@@]2(C)Oc3c(C)c(O)c4c(O)c(c5c(nc6cc(C)ccn65)c4c3C2=O)NC(=O)/C(C)=C\C=C\[C@H](C)[C@H](O)[C@@H](C)[C@@H](O)[C@@H](C)[C@H](OC(C)=O)[C@@H]1C	=	40.2
COc1ccc(Cl)cc1C(=O)NCCc1ccc(S(=O)(=O)NC(=O)NC2CCCCC2)cc1 [Glybenclamide]	=	93.9
CO[C@H]1/C=C/O[C@@]2(C)Oc3c(C)c(O)c4c(c3C2=O)C2=NC3(CCN(CC(C)C)CC3)NC2=C(NC(=O)/C(C)=C\C=C\[C@H](C)[C@H](O)[C@@H](C)[C@@H](O)[C@@H](C)[C@H](OC(C)=O)[C@@H]1C)C4=O	=	27.5
Cc1c(C)c2c(c(C)c1O)CCC(C)(COc1ccc(CC3SC(=O)NC3=O)cc1)O2 (centres unmarked)	=	32.6
CO[C@H]1/C=C/O[C@@]2(C)Oc3c(C)c(O)c4c(O)c(cc(O)c4c3C2=O)NC(=O)/C(C)=C\C=C\[C@H](C)[C@H](O)[C@@H](C)[C@@H](O)[C@@H](C)[C@H](OC(C)=O)[C@@H]1C [Rifamycin SV (Sodium salt), Rifamycin SV]	=	50
COc1cc(NC(C)CCCN)c2ncccc2c1 (centres unmarked)	=	17.9
CN(C)c1ccc(O)c2c1C[C@H]1C[C@H]3[C@H](N(C)C)C(O)=C(C(N)=O)C(=O)[C@@]3(O)C(O)=C1C2=O	=	22.3
CCN(CC)CCCCCCNc1cc(OC)cc2c(C)ccnc12	=	22
CC(=O)[C@H]1CC[C@H]2[C@@H]3CC[C@H]4C[C@](C)(O)CC[C@]4(C)[C@H]3CC[C@]12C	=	65
O=C(O)c1cn(C2CC2)c2cc(N3CCNCC3)c(F)cc2c1=O	=	92
OC(c1cc(C(F)(F)F)nc2c(C(F)(F)F)cccc12)C1CCCCN1 (centres unmarked) [Mefloquine (Hydrochloride), Mefloquine]	=	4.48
CN(C)CCCN1c2ccccc2Sc2ccc(C(F)(F)F)cc21	=	15
C[C@H]1c2cccc(O)c2C(=O)C2=C(O)[C@]3(O)C(=O)C(C(N)=O)=C(O)[C@@H](N(C)C)[C@@H]3[C@@H](O)[C@@H]21	=	39.1
CCn1cc(C(=O)O)c(=O)c2cc(F)c(N3CCNCC3)nc21	=	163
CC(C)/N=c1\cc2n(-c3ccc(Cl)cc3)c3ccccc3nc-2cc1Nc1ccc(Cl)cc1	=	38.2
C#C[C@]1(O)CC[C@H]2[C@@H]3CCC4=Cc5oncc5C[C@]4(C)[C@H]3CC[C@@]21C	=	6.25
